test system: MCF7; assay: Cytotoxicity in human MCF7 cells assessed as reduction in cell viability incubated for 48 hrs by MTT assay; assay type: functional, cell-based; conditions: MCF7, 48 h
quantity_name: IC50 (µM)
One number for each entry, in µM.

Hi there! I need IC50 for each item below, if you can.
1. Cc1ccnc(NC(NC(=O)OCCn2c([N+](=O)[O-])cnc2C)C(Cl)(Cl)Cl)n1 (stereo not drawn)
2. Nc1nc(F)nc2c1ncn2C(NC(=O)OCCc1ccccn1)C(Cl)(Cl)Cl (stereo not drawn)
3. COc1ccnc(NC(NC(=O)OCCn2c([N+](=O)[O-])cnc2C)C(Cl)(Cl)Cl)n1 (stereo not drawn)

A.
[152, 1, 186]

====

system: MCF7; test: Cytotoxicity in human MCF7 cells assessed as reduction in cell viability incubated for 48 hrs by MTT assay; type: functional, cell-based; conditions: MCF7, 48 h
quantity_name: pIC50
One number for each entry, as −log10 of the molar value.

Here are 7 compounds. What values of pIC50 were reported for them?
1. Cn1c([N+](=O)[O-])cnc1COC(=O)NC(n1cnc2c(N)nc(Cl)nc21)C(Cl)(Cl)Cl (centres undefined)
2. CCOC(=O)NC(n1cnc2c(N)nc(F)nc21)C(Cl)(Cl)Cl (centres undefined)
3. Cc1ncc([N+](=O)[O-])n1CCOC(=O)NC(Nc1c(Cl)nc(N)nc1Cl)C(Cl)(Cl)Cl (centres undefined)
4. Cc1ncc([N+](=O)[O-])n1CCOC(=O)NC(n1cnc2c(Cl)nc(F)nc21)C(Cl)(Cl)Cl (centres undefined)
5. Nc1nc(Cl)nc2c1ncn2C(NC(=O)OCc1ccccc1)C(Cl)(Cl)Cl (centres undefined)
6. Nc1nc(N)c2ncn(C(NC(=O)OCCN3CCOCC3)C(Cl)(Cl)Cl)c2n1 (centres undefined)
7. Cc1ncc([N+](=O)[O-])n1CCOC(=O)NC(n1cnc2c(NCc3ccccc3)ncnc21)C(Cl)(Cl)Cl (centres undefined)

A.
[4.27, 6.10, 3.80, 4.21, 3.86, 3.90, 4.02]

====

I'd appreciate it if you could supply IC50 values for the items below.
system: HeLa; assay: Cytotoxicity in human HeLa cells assessed as reduction in cell viability incubated for 48 hrs by MTT assay; type: functional, cell-based
Give bare numbers, in µM.

Past entries and their recorded results:
Cc1ncc([N+](=O)[O-])n1CCOC(=O)NC(n1cnc2c(N)nc(Cl)nc21)C(Cl)(Cl)Cl (stereo not given) | 218
Cc1ncc([N+](=O)[O-])n1CCOC(=O)NC(Nc1c(Cl)nc(N)nc1Cl)C(Cl)(Cl)Cl (stereo not given) | 63.2
CCOC(=O)NC(n1cnc2c(N)nc(F)nc21)C(Cl)(Cl)Cl (stereo not given) | 0.9

Q. Which IC50 value is on record for CCOC(=O)NC(n1cnc2c(N)nc(Cl)nc21)C(Cl)(Cl)Cl (stereo not given) ?
A. 152

====

test system: MCF7; assay: Cytotoxicity in human MCF7 cells assessed as reduction in cell viability incubated for 48 hrs by MTT assay; assay type: functional, cell-based; settings: MCF7, 48 h
Kindly state log10(IC50) for each of the entries shown.
// stored as log10 of IC50 expressed in µM

Known results for molecules:
Nc1nc(F)nc2c1ncn2C(NC(=O)OCCN1CCOCC1)C(Cl)(Cl)Cl (stereo not drawn) | -0.70
O=C(NC(Nc1ncnc2c1cnn2C(NC(=O)OCCc1ccccn1)C(Cl)(Cl)Cl)C(Cl)(Cl)Cl)OCCc1ccccn1 (stereo not drawn) | 2.21
Cc1c(Cl)nc(NC(NC(=O)OCCn2c([N+](=O)[O-])cnc2C)C(Cl)(Cl)Cl)nc1Cl (stereo not drawn) | 2.06
Nc1ncnc2c1cnn2C(NC(=O)OCCN1CCOCC1)C(Cl)(Cl)Cl (stereo not drawn) | 1.29
Nc1nc(N)c2ncn(C(NC(=O)OCCc3ccccn3)C(Cl)(Cl)Cl)c2n1 (stereo not drawn) | 2.13
Cc1ncc([N+](=O)[O-])n1CCOC(=O)NC(n1cnc2c(OCc3ccccc3)nc(N)nc21)C(Cl)(Cl)Cl (stereo not drawn) | 1.95

I need log10(IC50) for every entry listed below, if you could help.
1. Cc1ncc([N+](=O)[O-])n1CCOC(=O)NC(Nc1ccc2ccccc2n1)C(Cl)(Cl)Cl (stereo not drawn)
2. Cc1ncc([N+](=O)[O-])n1CCOC(=O)NC(n1cnc2c(Cl)nc(Cl)nc21)C(Cl)(Cl)Cl (stereo not drawn)
3. CCOC(=O)NC(n1cnc2c(N)nc(Cl)nc21)C(Cl)(Cl)Cl (stereo not drawn)
4. Cc1ncc([N+](=O)[O-])n1CCOC(=O)NC(Nc1nc(Cl)cc(Cl)n1)C(Cl)(Cl)Cl (stereo not drawn)

A.
[2.00, 2.34, 1.94, 1.51]

Reference source: ChEMBL document CHEMBL4402600
